tested on: LASCPC-01; assay: cell viability relative to DMSO control (fraction); higher = less growth inhibition (more viable cells); conditions: 2 µM; 72 h
Where a name gives a salt, the structure may show the parent alone.
Sorting guide: entries reporting cell viability beneath 1 go in the 1 pile, the rest go in the -1 pile.

1) Cc1nccn1CC1CCc2c(c3ccccc3n2C)C1=O (stereo unspecified) [Ondansetron hydrochloride] = -1
2) Cc1ccc(Sc2ccccc2N2CCNCC2)c(C)c1 [Vortioxetine] = 1
3) COc1ccc2cccc(CCNC(C)=O)c2c1 [Agomelatine] = -1

Query: Consider the molecule COCCCN1CCC(NC(=O)c2cc(Cl)c(N)c3c2OCC3)CC1 [Prucalopride] . Is its cell viability strictly less than 1?
Result: 1

Query: Could you please tell me whether cell viability recorded for O=C(c1ccc(F)cc1)C1CCN(CCn2c(=O)[nH]c3ccccc3c2=O)CC1 [Ketanserin tartrate] is less than 1?
Result: 1

Query: API: query returns whether the molecule falls strictly under 1 in cell viability. Query: CN1[C@@H]2CC[C@H]1CC(OC(=O)c1c[nH]c3ccccc13)C2 (stereo partly specified) [3-Tropanyl-indole-3-carboxylate hydrochloride]
Result: -1

Query: Please let me know if N[C@@H](Cc1c[nH]c2ccc(O)cc12)C(=O)O [5-Hydroxy-L-tryptophan] shows cell viability below 1.
Result: -1

Query: hey, is cell viability for O=c1ccccn1CC1(O)CCN(Cc2ccccc2)CC1 lower than 1 or not?
Result: -1
